tested on: 596521-263-R-J1-PDC complex spheroids, viability % of control; experiment: Anticancer human tumor 596521-263-R-J1-PDC patient-derived soft tissue sarcoma cell line growth inhibition [GQUAD]; settings: second compound 0.316 µM; first compound 0.316 µM; active compounds read low;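 also: spheroids exposed to drugs for 7 days before viability reading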
hey, just use rule met if measured viability, T/C is less than 70%, otherwise rule not met

[
  {
    "molecule": "C=CCn1c(=O)c2cnc(Nc3ccc(N4CCN(C)CC4)cc3)nc2n1-c1cccc(C(C)(C)O)n1 + CN(C)c1ccc(Nc2c3ccc(NC(=O)CCN4CCCC4)cc3nc3cc(NC(=O)CCN4CCCC4)ccc23)cc1",
    "class-label": "rule met"
  },
  {
    "molecule": "CC1COCCN1c1cc(C2(S(C)(=N)=O)CC2)nc(-c2ccnc3[nH]ccc23)n1 (configuration not stated) + Cc1cnc(CNC(=O)c2c(=O)c3ccc(N4CCCN(C)CC4)nc3n3c2sc2ccccc23)cn1",
    "class-label": "rule met"
  },
  {
    "molecule": "O=C(NO)c1cnc(N2CCN(S(=O)(=O)c3ccc4ccccc4c3)CC2)nc1 + Cc1cnc(CNC(=O)c2c(=O)c3ccc(N4CCCN(C)CC4)nc3n3c2sc2ccccc23)cn1",
    "class-label": "rule met"
  },
  {
    "molecule": "CC(C)n1c(=O)n(C)c2cnc3cc(F)c(-c4ccc(OCCCN5CCCCC5)nc4)cc3c21 + Cc1[nH]c2ccc(F)cc2c1-c1nc2c3cccnc3c3ncccc3c2[nH]1",
    "class-label": "rule not met"
  },
  {
    "molecule": "CC1COCCN1c1cc(C2(S(C)(=N)=O)CC2)nc(-c2ccnc3[nH]ccc23)n1 (configuration not stated) + Cc1[nH]c2ccc(F)cc2c1-c1nc2c3cccnc3c3ncccc3c2[nH]1",
    "class-label": "rule not met"
  },
  {
    "molecule": "C=CCn1c(=O)c2cnc(Nc3ccc(N4CCN(C)CC4)cc3)nc2n1-c1cccc(C(C)(C)O)n1 + Cc1[nH]c2ccc(F)cc2c1-c1nc2c3cccnc3c3ncccc3c2[nH]1",
    "class-label": "rule not met"
  },
  {
    "molecule": "Nc1ccn(C2OC(CO)C(O)C2(F)F)c(=O)n1 (configuration not stated) + Cc1cnc(CNC(=O)c2c(=O)c3ccc(N4CCCN(C)CC4)nc3n3c2sc2ccccc23)cn1",
    "class-label": "rule met"
  },
  {
    "molecule": "CC(C)(O)C1CCC(Nc2ccc3ncc(-c4cccc(C(F)(F)F)c4)n3n2)CC1 (configuration not stated) + Cc1[nH]c2ccc(F)cc2c1-c1nc2c3cccnc3c3ncccc3c2[nH]1",
    "class-label": "rule not met"
  },
  {
    "molecule": "CC1COCCN1c1cc(-c2ccnn2C)c2ccnc(-c3ccn[nH]3)c2n1 (configuration not stated) + Cc1cnc(CNC(=O)c2c(=O)c3ccc(N4CCCN(C)CC4)nc3n3c2sc2ccccc23)cn1",
    "class-label": "rule met"
  },
  {
    "molecule": "O=c1[nH]cc(F)c(=O)[nH]1 + Cc1[nH]c2ccc(F)cc2c1-c1nc2c3cccnc3c3ncccc3c2[nH]1",
    "class-label": "rule not met"
  },
  {
    "molecule": "CC1COCCN1c1cc(C2(O)CC3CCC(C2)O3)c2cnn(-c3ccn[nH]3)c2n1 (configuration not stated) + Cc1cnc(CNC(=O)c2c(=O)c3ccc(N4CCCN(C)CC4)nc3n3c2sc2ccccc23)cn1",
    "class-label": "rule met"
  },
  {
    "molecule": "Nc1ccn(C2OC(CO)C(O)C2(F)F)c(=O)n1 (configuration not stated) + CN(C)c1ccc(Nc2c3ccc(NC(=O)CCN4CCCC4)cc3nc3cc(NC(=O)CCN4CCCC4)ccc23)cc1",
    "class-label": "rule met"
  },
  {
    "molecule": "Cn1ncnc1[C@H]1c2n[nH]c(=O)c3cc(F)cc(c23)N[C@@H]1c1ccc(F)cc1 + Cc1[nH]c2ccc(F)cc2c1-c1nc2c3cccnc3c3ncccc3c2[nH]1",
    "class-label": "rule not met"
  },
  {
    "molecule": "CCCS(=O)(=O)Nc1ccc(F)c(C(=O)c2c[nH]c3ncc(-c4ccc(Cl)cc4)cc23)c1F + Cc1cnc(CNC(=O)c2c(=O)c3ccc(N4CCCN(C)CC4)nc3n3c2sc2ccccc23)cn1",
    "class-label": "rule not met"
  },
  {
    "molecule": "CC1COCCN1c1cc(C2(S(C)(=N)=O)CC2)nc(-c2ccnc3[nH]ccc23)n1 (configuration not stated) + CN(C)c1ccc(Nc2c3ccc(NC(=O)CCN4CCCC4)cc3nc3cc(NC(=O)CCN4CCCC4)ccc23)cc1",
    "class-label": "rule not met"
  },
  {
    "molecule": "COc1ncnc(C2CC2)c1-c1ncc2cnn(Cc3ccc(-c4nc(C(F)(F)F)cn4C(C)C)cc3)c2n1 + Cc1[nH]c2ccc(F)cc2c1-c1nc2c3cccnc3c3ncccc3c2[nH]1",
    "class-label": "rule not met"
  },
  {
    "molecule": "COc1ccc([C@@H](O)c2cc(-c3ncnc4cc(N5CCOCC5)ccc34)c(F)cc2Cl)nn1 + Cc1[nH]c2ccc(F)cc2c1-c1nc2c3cccnc3c3ncccc3c2[nH]1",
    "class-label": "rule not met"
  },
  {
    "molecule": "Cc1cccc(N(C)C(=O)C2C(O)CCN2c2nc(C)cc(C(F)(F)F)c2C#N)c1 (configuration not stated) + CN(C)c1ccc(Nc2c3ccc(NC(=O)CCN4CCCC4)cc3nc3cc(NC(=O)CCN4CCCC4)ccc23)cc1",
    "class-label": "rule not met"
  },
  {
    "molecule": "CC(C)n1c(=O)n(C)c2cnc3cc(F)c(-c4ccc(OCCCN5CCCCC5)nc4)cc3c21 + CN(C)c1ccc(Nc2c3ccc(NC(=O)CCN4CCCC4)cc3nc3cc(NC(=O)CCN4CCCC4)ccc23)cc1",
    "class-label": "rule not met"
  },
  {
    "molecule": "CCCS(=O)(=O)Nc1ccc(F)c(C(=O)c2c[nH]c3ncc(-c4ccc(Cl)cc4)cc23)c1F + CN(C)c1ccc(Nc2c3ccc(NC(=O)CCN4CCCC4)cc3nc3cc(NC(=O)CCN4CCCC4)ccc23)cc1",
    "class-label": "rule not met"
  }
]
